I'd appreciate it if you could supply relative growth values for the items below.
Test system: Arthrobacter 3 (Arthrobacter sp.)
Measurement description: relative growth (AUC of 72 h growth curve relative to DMSO control, dAUC) (ratio); higher = more growth (less inhibition), active = hit call of the paper
Condition summary: 20 µM
Give bare numbers.

Here is how some compounds turned out for relative growth.
Query: Given the compound "CCNC(=O)NC(=O)/C(C#N)=N/OC" , what is its reported relative growth?
Result: 0.975

Query: Please give the result for "Nc1c([N+](=O)[O-])ccc(Oc2ccccc2)c1Cl" too.
Result: 0.957

Query: Please give the result for "CNC(=O)Oc1cccc2ccccc12" too.
Result: 1.14

Query: Please give the result for "CC[C@H]1CCC[C@H](O[C@H]2CC[C@H](N(C)C)[C@@H](C)O2)[C@@H](C)C(=O)C2=C[C@@H]3[C@@H](C=C(C)[C@@H]4C[C@@H](O[C@@H]5O[C@@H](C)[C@H](OC)[C@@H](OC)[C@H]5OC)C[C@@H]34)[C@@H]2CC(=O)O1.CC[C@H]1CCC[C@H](O[C@H]2CC[C@H](N(C)C)[C@@H](C)O2)[C@@H](C)C(=O)C2=C[C@H]3[C@@H]4C[C@H](O[C@@H]5O[C@@H](C)[C@H](OC)[C@@H](OC)[C@H]5OC)C[C@H]4C=C[C@H]3C2CC(=O)O1" too.
Result: 0.999

Query: Please give the result for "CO/C=C(/C(=O)OC)c1ccccc1COc1cccc(C(F)(F)F)n1" too.
Result: 1.02

Further cases:
Query: Given the compound COCc1cnc(C2=NC(C)(C(C)C)C(=O)N2)c(C(=O)O)c1 (stereo unspecified) , what is its reported relative growth?
Result: 0.931

Reference source: the supplement of paper PMC12067926
